System: HOP-92 NSCLC
Assay: NCI-60 one-dose screen, 48 h (100 = growth as untreated, 0 = no growth, -100 = all killed)
Conditions: 10 µM unless noted
Protocol: Growth inhibition of the HOP-92 human Non-Small Cell Lung tumor cell line is measured as a screen for anti-cancer activity. Cells are grown in 96 well plates and exposed to the test compound for 48 hours. Compounds are tested at a single concentration, which is 10^-5 M for most compounds. The reported endpoint is percent growth (GI% or GIPRCNT), where numbers from 0 - 100% represent growth inhibition, and numbers from -100% - 0 represent cell death. […]
About 83,000 compounds went through this panel and 20% of them were active in at least one assay; those are over-represented in the sample as a whole.
measured_property: growth (%)
Response body: numeric value in %, unit text excluded.

Request the reported growth associated with COc1cccc2c1c(C(=O)C(=O)Nc1ccn[nH]1)cn2Cc1ccc(F)cc1 87

Request the reported growth associated with COc1ccc(C2=N[C@@H](Cc3ccccc3)C(=O)Nc3ccsc32)cc1 61.4

Request the reported growth associated with C[C@]12CCc3nc(Nc4ccccc4F)sc3C1=CC[C@@H]1[C@@H]2CC[C@]2(C)C(=O)CC[C@@H]12 116

Request the reported growth associated with COc1ccc(C(=O)c2sc3nc4c(cc3c2N)N2CCC4CC2)cc1OC 6.56

Request the reported growth associated with O=C(CC1(O)C(=O)N(Cc2ccccc2)c2ccc(F)cc21)c1ccc(C(=O)NCC2CCC3(CC2)OOC2(CCCCC2)OO3)cc1 (centres undefined) -71.8

Request the reported growth associated with COP(=S)(N1CC1)N1CC1 98.6

Request the reported growth associated with COc1ccc(/C=C\c2cc(OC)c(OC)c(OC)c2)cc1OCC(=O)Nc1nc2ccc(OC(F)(F)F)cc2s1 55.9

Request the reported growth associated with CC(C)=CC1C(C(=O)OCc2cccc(Oc3ccccc3)c2)C1(C)C (centres undefined) 56.8

Request the reported growth associated with CCCCN(CCCC)P(=O)(Oc1ccccc1)Oc1ccccc1 48.3

Request the reported growth associated with CC(C)(N)Cc1ccccc1 87.8

Request the reported growth associated with CC[C@H](C)[C@H](NC(=O)c1cccn1C)C(=O)N(C)[C@H](C[C@@H](OC(C)=O)c1nc(C(=O)N[C@@H](Cc2ccccc2)C[C@H](C)C(=O)OC)cs1)C(C)C 22.4

Request the reported growth associated with COC(=O)CC[C@H](Cc1ccccc1)NC(=O)c1csc([C@@H](C[C@H](C(C)C)N(C)C(=O)[C@@H](NC(=O)[C@H]2CCCCN2C)C(C)C)OC(C)=O)n1 -1.54

Request the reported growth associated with [Cl][Hg][c]1cc[c]([Hg][Cl])o1 -29.1

Request the reported growth associated with O=C1C(N2CC2)=C(N2CC2)C(=O)C(N2CC2)=C1N1CC1 41.4

Request the reported growth associated with COc1cc(C=C2c3ccccc3C(=O)c3ccccc32)ccc1OCCCCOc1cc2c(cc1OC)C(=O)N1CCCC1C=N2 (centres undefined) -59.4

Request the reported growth associated with C=CC1=C[C@@H]2[C@@H]3O[C@]4(CC[C@H](O4)[C@@H](C)C[C@@H](O)C3=O)C[C@H](O)C3=NCC[C@@]32CC1 -22.3

Request the reported growth associated with O=C1CNC(c2ccccc2)c2cc(Cl)ccc2N1 (centres undefined) 107

Request the reported growth associated with O=C(CC1(O)C(=O)Nc2ccccc21)c1ccc(C(=O)NCC2CCC3(CC2)OOC2(CCCCC2)OO3)cc1 (centres undefined) -53.6

Request the reported growth associated with CNC(=O)Oc1cccc(C(F)(F)F)c1 106

* * *

tested on: HL-60(TB) leukemia; assay: NCI-60 one-dose screen, 48 h (100 = growth as untreated, 0 = no growth, -100 = all killed); conditions: 10 µM unless noted
About 83,000 compounds went through this panel and 20% of them were active in at least one assay; those are over-represented in the sample as a whole.
measured_property: growth (%)
Response body: numeric value in %, unit text excluded.

Request the reported growth associated with Nc1ncnc2n[nH]nc12 83.5

Request the reported growth associated with COc1cc2c(cc1OCc1ccccc1)C(CC(C)C)=[N+](C)CC2 73

Request the reported growth associated with Cc1ccc(N2COOC3(OOC2)C2CC4CC(C2)CC3C4)cc1 66.6

Request the reported growth associated with Clc1ccc(CO/N=C(\Cn2ccnc2)c2ccc(Cl)cc2Cl)c(Cl)c1 -23

Request the reported growth associated with C1CCC([PH+](C2CCCCC2)C2CCCCC2[PH+](C2CCCCC2)C2CCCCC2)CC1.[Au].[CH-]1CCCCC1CC1CCCC[N-]1 (stereo not given) -32.3

Request the reported growth associated with C=CC12CCN(CC1)C(C(O)c1ccnc3ccc(OC)cc13)C2 (stereo not given) 60.7

Request the reported growth associated with COc1ccc(Nc2ccnc3cc(Cl)ccc23)cc1CN(CCCl)CCCl -22.3

Request the reported growth associated with Cc1cc(N(CCCl)CCCl)ccc1C=Nc1ccc(-c2csc(Cc3ccccc3)n2)cc1 30.7

Request the reported growth associated with CC(=O)[O][Hg][O]C(C)=O 35.2

Request the reported growth associated with C/C(=C\c1ccn(-c2ccc(N)cc2)n1)[C@@H]1C[C@@H]2O[C@]2(C)CCC[C@H](C)[C@H](O)[C@@H](C)C(=O)C(C)(C)[C@@H](O)CC(=O)O1 5.9

Request the reported growth associated with CN1C(=O)C(=Cc2cn(CCCCCCn3c4ccccc4c(=O)c4ccccc43)c3ccccc23)C(=O)N(C)C1=O 79.3

Request the reported growth associated with O=C(CCCCCNC1=CC(=O)c2ccccc2C1=O)NCCC[Te]c1ccccc1 28.1

Request the reported growth associated with ClCCN(CCCl)c1ccc(OCc2ccccc2)cc1 10.6

Request the reported growth associated with Cc1cc(C)c(CBr)c(C)c1 59.7

Request the reported growth associated with O=C1C=C(N2C3C4CCC(C4)C32)C(=O)C=C1c1ccccc1 (stereo not given) 44.8

Request the reported growth associated with CC(C)(C)C(=O)OCOP(=O)(OCOC(=O)C(C)(C)C)C1CCCN(O)C1=O (stereo not given) -21

Request the reported growth associated with O=[N+]([O-])c1cnc[nH]1 134

Request the reported growth associated with CC[C@H](C)[C@H](NC(=O)C12C3C4C1C1C2C3C41NC)C(=O)N(C)[C@H](C[C@@H](OC(C)=O)c1nc(C(=O)N[C@@H](Cc2ccccc2)C[C@H](C)C(=O)OC)cs1)C(C)C (stereo not given in full) -14.6

Request the reported growth associated with CC(CO)NC1CCCCC1 (stereo not given) 116

Request the reported growth associated with CC(=O)O[C@@H]1CC[C@]2(C)[C@H]3CC[C@]4(C)C(=O)CC[C@H]4[C@@H]3C[C@@H]3SC(N)=N[C@@]32C1 44.5

* * *

tested on: NCI/ADR-RES ovarian; assay: NCI-60 one-dose screen, 48 h (100 = growth as untreated, 0 = no growth, -100 = all killed); settings: 10 µM unless noted
About 83,000 compounds went through this panel and 20% of them were active in at least one assay; those are over-represented in the sample as a whole. Activity calls are given as the source filed them. The calls were made as follows: active = growth percent below 10; inactive = the rest.
measured_property: growth

What measured growth is associated with CC(C)=CC1C(C(=O)OCc2cccc(Oc3ccccc3)c2)C1(C)C (centres undefined) on NCI/ADR-RES ovarian? 95% (inactive)

What measured growth is associated with COC(=O)[C@@H](C)C[C@H](Cc1ccccc1)NC(=O)c1nc([C@@H](C[C@H](C(C)C)N(C)C(=O)[C@@H](NC(=O)[C@H]2C[C@H](O)CCN2C)C(C)C)OC(C)=O)sc1C(C)C on NCI/ADR-RES ovarian? 38.9% (inactive)

What measured growth is associated with CC(=O)O[C@H]1CC[C@@]2(C)C(=CC[C@H]3[C@@H]4C[C@@H](N5CC5)[C@H](C(C)=O)[C@@]4(C)CC[C@@H]32)C1 on NCI/ADR-RES ovarian? 92.9% (inactive)

What measured growth is associated with COC(=O)[C@@H](C)C[C@H](Cc1ccccc1)NC(=O)c1csc([C@@H](C[C@H](C(C)C)N(C)C(=O)[C@@H](NC(=O)[C@H]2CCCCN2C)C2CCCCC2)OC(C)=O)n1 on NCI/ADR-RES ovarian? 10.6% (inactive)

What measured growth is associated with COc1ccc(C/C(C)=C(\c2ccc(OCCN3CCOCC3)cc2)c2ccc(OC(=O)Cc3ccccc3)cc2)cc1 on NCI/ADR-RES ovarian? 5.39% (active)

What measured growth is associated with NC(=S)c1cn(C2OC(CO)C(O)C2O)c2ncnc(N)c12 (centres undefined) on NCI/ADR-RES ovarian? -25.8% (active)

What measured growth is associated with CC(=O)O[C@@H]1CC[C@]2(C)[C@H]3CC[C@]4(C)C(=O)CC[C@H]4[C@@H]3C[C@@H]3SC(N)=N[C@@]32C1 on NCI/ADR-RES ovarian? 44% (inactive)

What measured growth is associated with CCC(O)(CN)c1ccccc1 (centres undefined) on NCI/ADR-RES ovarian? 105% (inactive)

What measured growth is associated with O=C(Nc1ccc(O)cc1)C(Cl)(Cl)Cl on NCI/ADR-RES ovarian? 99.4% (inactive)

What measured growth is associated with O=C(O)CNC(=O)C(Cl)(Cl)Cl on NCI/ADR-RES ovarian? 108% (inactive)

What measured growth is associated with COc1ccc(-n2c(C)nc3cc(OC)c(OC)cc3c2=O)cc1OC on NCI/ADR-RES ovarian? 102% (inactive)

What measured growth is associated with c1cnc2[nH]cc(-c3csc(-c4cn(CCCCN5CCOCC5)c5ccccc45)n3)c2c1 on NCI/ADR-RES ovarian? 69.4% (inactive)

What measured growth is associated with C=C1C[C@](OC)([C@H](O)C(=O)N[C@@H](OC)[C@@H]2C[C@@H](O)C(C)(C)[C@@H](C[C@@H](COC)OC)O2)O[C@H](C)[C@@H]1C on NCI/ADR-RES ovarian? -42.3% (active)

What measured growth is associated with CCC[CH2][Sn]([CH2]CCC)([CH2]CCC)[O]c1ccc(Cl)cc1Cl on NCI/ADR-RES ovarian? -84.6% (active)

What measured growth is associated with c1cc2c(c3c1CCNC3)OCO2 on NCI/ADR-RES ovarian? 101% (inactive)

What measured growth is associated with COc1cccc2c1c(C(=O)c1ccco1)cn2Cc1ccc(F)cc1 on NCI/ADR-RES ovarian? 104% (inactive)

What measured growth is associated with COc1ccc2c(c1)c(-c1nc(-c3cn(C)c4ncccc34)cs1)cn2CCCCN1CCCCC1 on NCI/ADR-RES ovarian? 5.12% (active)

What measured growth is associated with CC(=O)Nc1ccc(NC(=O)c2ccc([As](O)O)cc2)cc1 on NCI/ADR-RES ovarian? 101% (inactive)

What measured growth is associated with CCCCCCCC[n+]1ccc2ccccc2c1 on NCI/ADR-RES ovarian? 95.6% (inactive)
